Assign pIC50 to each entry below.
tested on: PC-9 cells (EGFR Ex19Del); test: Potency Assay: pERK (SOS1 pERK IC50 Assay, AlphaLISA SureFire Ultra p-ERK1/2); type: cell-based; settings: Homo sapiens; PC-9 cells (EGFR Ex19Del), 1 hour incubation, AlphaLISA p-ERK1/2; read-out: SOS1 pERK IC50
pIC50: −log10 of the molar value.

C[C@@H](Nc1nc(Cl)nc2c1CN(C(=O)N1CCOCC1)C2)c1cccc2c1OCC2(F)F | > 6.00

Your task in this section: give pIC50 for each listed record.
1. C[C@@H](Nc1nc(Cl)nc2c1CN(C(=O)N1CCN(C)C(c3ccncc3)C1)C2)c1cccc(C(F)F)c1F (some centres unmarked)
2. C[C@@H](Nc1nc(Cl)nc2c1CN(C(=O)N1C[C@@H]3C[C@H]1CN3C)C2)c1cccc(C(F)F)c1F
3. Cc1nc2c(c(N[C@H](C)c3cc(N)cc(C(F)(F)F)c3)n1)CN(CC1CCOC1)C2 (some centres unmarked)

Solution:
["> 6.00", "> 6.00", "< 6.00"]

I have 3 compounds here; please give me pIC50 for each one.
1. COC1(C(=O)N2Cc3nc(Cl)nc(N[C@H](C)c4cccc(C(F)(F)CO)c4)c3C2)CN(C2COC2)C1
2. COc1nccc(C(=O)N2Cc3nc(Cl)nc(N[C@H](C)c4cc(N)cc(C(F)(F)F)c4)c3C2)n1
3. C[C@@H](Nc1nc(Cl)nc2c1CN(C(=O)C1(C#N)CCN(C)CC1)C2)c1cccc(C(F)(F)F)c1

Solution:
["> 6.00", "> 6.00", "> 6.00"]

Hi team, please reply with pIC50 for each item in this list.
1. C[C@@H](Nc1nc(Cl)nc2c1CN(C(=O)N1CCOCC1)C2)c1cccc(C(F)CO)c1 (some centres unmarked)
2. C[C@@H](Nc1nc(Cl)nc2c1CN(C(=O)N1CCOCC1)C2)c1cccc(C(F)F)c1
3. C[C@@H](Nc1nc(CN)nc2c1CN(C(=O)N1CCOCC1)C2)c1cc(N)cc(C(F)(F)F)c1
4. CC(Nc1nc(Cl)nc2c1CN(C(=O)N1CCOCC1)C2)c1cccc2c1C[C@@H](CO)C2 (stereo in doubt)
5. C[C@@H](Nc1nc(Cl)nc2c1CN(C(=O)C1(C)CCN(C3COC3)C1)C2)c1cccc(C(F)F)c1F (some centres unmarked)
6. C[C@@H](Nc1nc(Cl)nc2c1CN(C(=O)N1CCN(C)C(C(F)(F)F)C1)C2)c1cccc(C(F)F)c1F (some centres unmarked)
7. C[C@@H](Nc1nc(Cl)nc2c1CN(C(=O)[C@@H]1CNCCO1)C2)c1cccc(C(F)(F)F)c1
8. C[C@@H](Nc1nc(Cl)nc2c1CN(C(=O)c1ccc(-n3ccnc3)cn1)CC2)c1cc(N)cc(C(F)(F)F)c1

Solution:
1: < 6.00; 2: < 6.00; 3: < 6.00; 4: < 6.00; 5: > 6.00; 6: > 6.00; 7: > 6.00; 8: < 6.00

For each of the compounds below, state pIC50.
1. C[C@@H](Nc1nc(Cl)nc2c1CN(C(=O)c1ccncn1)C2)c1cc(N)cc(C(F)(F)F)c1
2. C[C@@H](Nc1nc(Cl)nc2c1CN(C(=O)N1CCN(C)CC1)C2)c1cccc(C(F)(F)CO)c1
3. COC1(C(=O)N2Cc3nc(Cl)nc(N[C@H](C)c4cccc(C(F)(F)F)c4)c3C2)CNC1
4. C[C@@H](Nc1nc(Cl)nc2c1CN(C(=O)N1CCNCC13COC3)C2)c1cccc(C(F)F)c1F
5. C[C@@H](Nc1nc(Cl)nc2c1CN(C(=O)c1cnc[nH]1)C2)c1cc(N)cc(C(F)(F)F)c1

Solution:
["> 6.00", "< 6.00", "> 6.00", "< 6.00", "> 6.00"]

Each of the following entries comes with a recorded value; kindly state pIC50 for each.
1. C[C@@H](Nc1nc(I)nc2c1CN(C(=O)N1CCOCC1)C2)c1cc(N)cc(C(F)(F)F)c1
2. C[C@@H](Nc1nc(Cl)nc2c1CN(C(=O)N1CCOCC1)C2)c1cccc(CF)c1F
3. C[C@@H](Nc1nc(Cl)nc2c1CN(C(=O)[C@@H]1COC[C@@H]1N)C2)c1cccc(C(F)F)c1F
4. C[C@@H](Nc1nc(Cl)nc2c1CN(C(=O)N1CCNC(C(F)(F)F)C1)C2)c1cccc(C(F)(F)F)c1 (some centres unmarked)

Solution:
> 6.00
< 6.00
< 6.00
> 6.00

Can you give me pIC50 for all of these, one by one?
1. C[C@@H](Nc1nc(Cl)nc2c1CN(C(=O)C1CN(C)CCO1)C2)c1cccc(C(F)(F)F)c1 (some centres unmarked)
2. C[C@@H](Nc1nc(Cl)nc2c1CN(C(=O)C13COC(CCO1)C3)CC2)c1cc(N)cc(C(F)(F)F)c1 (some centres unmarked)
3. CNCc1ccccc1-c1cccc(C(C)Nc2nc(Cl)nc3c2CN(C(=O)N2CCOCC2)C3)c1 (centres unmarked)
4. COC1(C(=O)N2Cc3nc(C(N)=O)nc(N[C@H](C)c4cccc(C(F)F)c4F)c3C2)CCOCC1
5. C[C@@H](Nc1nc(Cl)nc2c1CN(C(=O)N1CCOCC1)C2)c1cccc(C(F)(F)CO)c1

Solution:
1: < 6.00; 2: < 6.00; 3: > 6.00; 4: < 6.00; 5: > 6.00

* * *

So I've got a bunch of compounds here, and I need their pIC50 values.
test system: PC-9 cells (EGFR Ex19Del); experiment: Potency Assay: pERK (SOS1 pERK IC50 Assay, AlphaLISA SureFire Ultra p-ERK1/2); type: cell-based; conditions: Homo sapiens; PC-9 cells (EGFR Ex19Del), 1 hour incubation, AlphaLISA p-ERK1/2; read-out: SOS1 pERK IC50
pIC50: −log10 of the molar value.

Previously resolved entries follow.
C[C@@H](Nc1nc(CN2CCOCC2)nc2c1CN(C(=O)N1CCOCC1)C2)c1cccc(C(F)F)c1F | < 6.00
C[C@@H](Nc1nc(Cl)nc2c1C[C@@H](N1CCOCC1)CC2)c1cccc(C(F)F)c1F | > 6.00
COc1nccnc1C(=O)N1Cc2nc(Cl)nc(N[C@H](C)c3cc(N)cc(C(F)(F)F)c3)c2C1 | > 6.00
C[C@@H](Nc1nc(Cl)nc2c1CN(C(=O)c1ccnnc1)CC2)c1cc(N)cc(C(F)(F)F)c1 | < 6.00
C[C@@H](Nc1nc(Cl)nc2c1CC(N1CC3(COC3)C1)CC2)c1cc(N)cc(C(F)(F)F)c1 (stereo partly drawn) | > 6.00

Provide pIC50 values for the following items, in order.
1. C[C@@H](Nc1nc(CO)nc2c1CN(C(=O)N1CCOCC1)C2)c1cccc(C(F)F)c1F
2. C[C@@H](Nc1nc(Cl)nc2c1CN(C(=O)C1CCN(C)C1)C2)c1cccc(C(F)F)c1F (stereo partly drawn)

Solution:
["< 6.00", "> 6.00"]

Give me pIC50 for each of these compounds, listed below.
1. Cc1nc2c(c(N[C@H](C)c3cc(N)cc(C(F)(F)F)c3)n1)CN(CC1CCOC1)CC2 (stereo partly drawn)
2. Cc1nc2c(c(N[C@H](C)c3cc(N)cc(C(F)(F)F)c3)n1)CN(S(C)(=O)=O)C2
3. Cc1nc2c(c(N[C@H](C)c3cc(N)cc(C(F)(F)F)c3)n1)CN(S(=O)(=O)c1ccc(N)nc1)C2
4. COc1cccc(C(=O)N2Cc3nc(Cl)nc(N[C@H](C)c4cc(N)cc(C(F)(F)F)c4)c3C2)c1OC
5. COCC1(S(=O)(=O)N2CCc3nc(Cl)nc(N[C@H](C)c4cc(N)cc(C(F)(F)F)c4)c3C2)CCC1
6. C[C@@H](Nc1nc(Cl)nc2c1CN(C(=O)N1CCCNCC1)C2)c1cccc(C(F)(F)F)c1

Solution:
< 6.00
< 6.00
< 6.00
> 6.00
< 6.00
> 6.00

Value sought for every listed compound: pIC50.
1. C[C@@H](Nc1nc(Cl)nc2c1CN(C(=O)N1CCOCC1)C2)c1cccc(N2CC(O)C2)c1
2. CO[C@H]1C[C@H](C(=O)N2CCc3nc(Cl)nc(N[C@H](C)c4cc(N)cc(C(F)(F)F)c4)c3C2)C1
3. C[C@@H](Nc1nc(Cl)nc2c1CN(C(=O)C1(F)CCN(C3COC3)CC1)C2)c1cccc(C(F)F)c1F
4. COC1CCC(C(=O)N2CCc3nc(Cl)nc(N[C@H](C)c4cc(N)cc(C(F)(F)F)c4)c3C2)C1 (stereo partly drawn)
5. C[C@@H](Nc1nc(Cl)nc2c1CN(C(=O)c1cncc(N3CCOCC3)n1)CC2)c1cc(N)cc(C(F)(F)F)c1
6. C[C@@H](Nc1nc(Cl)nc2c1CN(S(=O)(=O)N1CCOCC1)CC2)c1cccc(C(F)(F)CO)c1
7. C[C@@H](Nc1nc(Cl)nc2c1CN(S(=O)(=O)C1CC(F)(F)C1)CC2)c1cc(N)cc(C(F)(F)F)c1

Solution:
1: < 6.00; 2: < 6.00; 3: > 6.00; 4: < 6.00; 5: < 6.00; 6: > 6.00; 7: > 6.00

Record pIC50 per entry; entries follow.
1. C[C@@H](Nc1ncnc2c1CC(N1CCOCC1)C(=O)N2C)c1cc(N)cc(C(F)(F)F)c1 (stereo partly drawn)
2. C[C@@H](Nc1nnc(Cl)c2c1CN(C(=O)N1CCOCC1)C2)c1cc(N)cc(C(F)(F)F)c1
3. C[C@@H](Nc1nc(Cl)nc2c1CN(C(=O)c1ncccn1)CC2)c1cc(N)cc(C(F)(F)F)c1
4. C[C@@H](Nc1nc(Cl)nc2c1CN(C(=O)N1CCNCC(F)C1)C2)c1cccc(C(F)F)c1F (stereo partly drawn)
5. C[C@@H](Nc1nc(Cl)nc2c1CN(C(=O)C1(O)COC1)C2)c1cccc(C(F)F)c1F
6. C[C@@H](Nc1ncnc2c1CC(N1CC3(COC3)C1)CC2)c1cccc(C(F)F)c1F (stereo partly drawn)

Solution:
< 6.00
< 6.00
< 6.00
> 6.00
> 6.00
< 6.00

List the reported pIC50 of each compound below.
1. Nc1cc(CNc2nc(Cl)nc3c2CN(C(=O)N2CCOCC2)C3)cc(C(F)(F)F)c1
2. C[C@@H](Nc1nc(Cl)nc2c1CN(C(=O)[C@H]1COCCN1)C2)c1cccc(C(F)F)c1F

Solution:
< 6.00
< 6.00

Batch: pIC50 for all items listed.
1. C[C@@H](Nc1nc(Cl)nc2c1CC(N1CC3(COC3)C1)CC2)c1cccc(C(F)(F)CO)c1 (stereo partly drawn)
2. Cc1nc2c(c(N[C@H](C)c3cc(N)cc(C(F)(F)F)c3)n1)CN(C(=O)C1CCOCC1)C2

Solution:
> 6.00
< 6.00
